Reference source for all entries: the supplement of paper PMC3334620

systemUnderTest: Ste12 (UniProt P13574)
Sequence (P13574 whole entry): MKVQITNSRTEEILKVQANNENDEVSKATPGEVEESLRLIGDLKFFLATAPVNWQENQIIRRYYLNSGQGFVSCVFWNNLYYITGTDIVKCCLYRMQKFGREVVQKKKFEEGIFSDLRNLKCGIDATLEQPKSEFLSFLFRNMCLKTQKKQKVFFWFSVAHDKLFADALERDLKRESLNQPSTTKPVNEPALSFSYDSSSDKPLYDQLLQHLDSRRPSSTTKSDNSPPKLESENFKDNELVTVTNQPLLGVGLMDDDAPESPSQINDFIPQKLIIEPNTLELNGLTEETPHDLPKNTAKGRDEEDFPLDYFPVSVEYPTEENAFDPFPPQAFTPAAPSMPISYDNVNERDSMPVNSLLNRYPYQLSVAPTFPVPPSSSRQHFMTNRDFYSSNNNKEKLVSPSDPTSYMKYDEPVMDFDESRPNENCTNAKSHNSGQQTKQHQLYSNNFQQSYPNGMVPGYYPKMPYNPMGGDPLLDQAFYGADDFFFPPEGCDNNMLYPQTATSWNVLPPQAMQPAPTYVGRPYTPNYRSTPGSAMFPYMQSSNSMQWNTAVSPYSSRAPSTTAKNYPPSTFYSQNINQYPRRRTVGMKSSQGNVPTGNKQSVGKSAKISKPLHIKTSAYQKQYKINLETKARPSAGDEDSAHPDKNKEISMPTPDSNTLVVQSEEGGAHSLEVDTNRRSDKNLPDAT
testProtocol: PBM E-score (8-mer binding enrichment) (E-score (-0.5 to 0.5)); higher = stronger / more preferred TF binding
runParameters: protein concentration: 200 nM; construct: GST-DNA-binding domain
Whole data set: some 33,000 sequences, median “E-score (-0.5 to 0.5)” near -0.01, cut for the highest 2% near 0.26. The sample holds the highest values, similar sequences and a random draw of the others, so the mix is not that of the screen.
Record Y whenever PBM E-score is at 0.04 or higher; record N when lower.

GAGGTAAA: Y

Is PBM E-score at least 0.04? Consider "GATTTTAA" Y

Is PBM E-score at least 0.04? Consider "CATTTCAA" Y

Is PBM E-score at least 0.04? Consider "GCGTCCAA" N

Is PBM E-score at least 0.04? Consider "CACTCCAG" N

Is PBM E-score at least 0.04? Consider "TGTTTCAA" Y

Is PBM E-score at least 0.04? Consider "AGGCCATA" N

Is PBM E-score at least 0.04? Consider "AAAAGTAT" Y

Is PBM E-score at least 0.04? Consider "AAAATGAA" Y
